Target: T1, TFAM (UniProt Q00059 43-246)
T1 sequence: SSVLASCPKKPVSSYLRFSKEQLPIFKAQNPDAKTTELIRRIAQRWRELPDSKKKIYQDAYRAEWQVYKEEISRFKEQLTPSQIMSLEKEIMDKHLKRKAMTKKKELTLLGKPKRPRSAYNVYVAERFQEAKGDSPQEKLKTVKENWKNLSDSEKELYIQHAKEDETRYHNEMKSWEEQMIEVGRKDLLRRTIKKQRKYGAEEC
Assay: fluorescence polarization; 250 mM NaCl; EMSA: 10 mM HEPES pH 8.0, 500 mM NaCl, 2 mM DTT, 130 ug/ml BSA, 5% glycerol, 100 nM DNA, 30 min on ice then 10 min RT; FP: 10 mM HEPES pH 8.0, 150-400 mM NaCl
Conditions: protein: recombinant; tags: His-MBP N-terminal, removed by TEV; label: 5'-Cy3 on strand 1 (EMSA); 6-FAM (FP); blunt
recordedMetric: Kd (nM)

1. DNAAA (dsDNA) DNA 1: AAAAAGAATCATTTGGATATATAGGTAT DNA 2: ATACCTATATATCCAAATGATTCTTTTT	287
2. DNAGG (dsDNA) DNA 1: AAAAAGAACCATTTGGATACATAGGTAT DNA 2: ATACCTATGTATCCAAATGGTTCTTTTT	259
